Test system: EKVX NSCLC
experimental-protocol: NCI-60 one-dose screen, 48 h
measurement-context: 10 µM unless noted
Compounds without any hit were thinned out: in the full panel of roughly 83,000, 20% have a hit. Active and inactive are the calls of the source. The calls were made as follows: active = growth percent below 10; inactive = the rest.
Write down the outcome that applies. Available outcomes: yes (1) = active, no (0) = inactive

For orientation, consider the following solved cases.
{"compound": "CCCCNCC(O)c1cc(-c2ccc(C(F)(F)F)cc2)nc(-c2ccc(C(F)(F)F)cc2)c1 (configuration not stated)", "label-class": "yes (1)"}
{"compound": "COc1ccc(-c2nn(-c3cccc(Cl)c3)cc2/C=C2\\C(=N)N(c3ccccc3)N=C2N)cc1", "label-class": "no (0)"}
{"compound": "CC(=O)O[C@H]1[C@H](CC#CC#CC[C@@H]2C[C@]3(C)[C@H]4CC=C5[C@H]6[C@@H](C)[C@H](C)CC[C@]6(C(=O)NCCN(CCN)CCN)CC[C@@]5(C)[C@]4(C)CC[C@H]3C(C)(C)[C@H]2OC(C)=O)C[C@]2(C)[C@H]3CC=C4[C@H]5[C@@H](C)[C@H](C)CC[C@]5(C(=O)NCCN(CCN)CCN)CC[C@@]4(C)[C@]3(C)CC[C@H]2C1(C)C", "label-class": "yes (1)"}
{"compound": "N[C@@H](CO)C(=O)O", "label-class": "no (0)"}
{"compound": "Oc1ccc(CCCCCCc2ccc(O)cc2)cc1", "label-class": "no (0)"}

In: Assay outcome for "CNC(=O)c1ccccc1Sc1ccc2c(/C=C/c3ccccn3)n[nH]c2c1" : what was it?
Out: no (0)

In: Assay outcome for "N=c1n(Cc2ccccc2)c(N)cc(=O)n1Cc1ccccc1" : what was it?
Out: yes (1)

###

System: MCF7 breast
experimental-protocol: NCI-60 one-dose screen, 48 h (100 = growth as untreated, 0 = no growth, -100 = all killed)
measurement-context: 10 µM unless noted
About 83,000 compounds went through this panel and 20% of them were active in at least one assay; those are over-represented in the sample as a whole.
Grouping by measured growth is done with the following cut points: A = under 10%, B = from 10% up to 40%, C = 40% and over

{"molecule": "OC(c1cc2cc(Cl)ccc2c2cc(C(F)(F)F)ccc12)C1CCCCN1 (centres undefined)", "label-class": "A"}
{"molecule": "O=C(NCCNC(=O)c1cc(S(=O)(=O)NCCc2ccccc2)c(O)c(O)c1O)c1cc(S(=O)(=O)NCCc2ccccc2)c(O)c(O)c1O", "label-class": "B"}

In: Form: Item = "COc1ccc([C@@H]2[C@@H](Cl)C(=O)N2c2cc(OC)c(OC)c(OC)c2)cc1C" ; Class = ?
Out: B

In: Form: Item = CO[C@@]12[C@@H]3NC3CN1C1=C(C(=O)C(N)=C(C)C1=O)[C@@H]2COC(N)=O (some centres undefined) ; Class = ?
Out: A

In: Form: Item = "CCCCCCCCCCCCCCCCCC1=NC(C)(C)CN1C(C)(C)CO" ; Class = ?
Out: A

In: Form: Item = "CCOC(=O)c1ccc(NC(=O)NC2=NCCS2)cc1" ; Class = ?
Out: B

In: Form: Item = "Cn1nc(C(F)(F)F)cc1-c1c[nH]c(OCc2ccc(Cl)cc2)c(-c2ccc(Cl)c(C(F)(F)F)c2)c1=O" ; Class = ?
Out: A

In: Form: Item = "Cc1[nH]nc2ccc3nc(-c4ccc5[nH]ncc5c4)c4c(c3c12)CCCC4" ; Class = ?
Out: B

In: Form: Item = O=C1OCC2=C1C(c1ccc(Cl)c(Cl)c1)c1cc3c(cc1N2CCO)CCC3 (centres undefined) ; Class = ?
Out: B

In: Form: Item = "Cc1[nH]n(C(=O)c2ccncc2)c(=O)c1N=Nc1ccc(O)c(C(=O)O)c1" ; Class = ?
Out: C

In: Form: Item = "CCN(CC)c1ccc(C(=N)c2ccc(N(C)C)cc2)cc1" ; Class = ?
Out: A

In: Form: Item = "N#Cc1nc(-c2ccc(Cl)cc2)cc(-c2ccc(Nc3nc(N4CCCCC4)nc(N4CCCCC4)n3)cc2)c1N" ; Class = ?
Out: C

In: Form: Item = "Cc1ccc(NC(=O)c2[nH]c(SCCN(C)C)nc2-c2ccc(F)cc2)cc1C#Cc1cnc2cccnn12" ; Class = ?
Out: B

In: Form: Item = "O=C1C=CC(=O)N1CO" ; Class = ?
Out: C

In: Form: Item = "CCOc1cccc(/C=N/NC(=O)c2ccc(Nc3ccnc(C(F)(F)F)c3)cc2)c1O" ; Class = ?
Out: A

In: Form: Item = "CCCCCCCCCC1=NC(C)(C)CN1C(C)(C)CO" ; Class = ?
Out: C

In: Form: Item = "COc1cc(-c2n/c(=C\c3c(O)[nH]c4cc(Cl)ccc34)cc3c2=Nc2ccccc2-3)cc(OC)c1OC" ; Class = ?
Out: C

In: Form: Item = "CN=C1C=C/C(=N/N=c2/ccn(O)cc2C)C=C1C" ; Class = ?
Out: C

In: Form: Item = "COC(=O)/C=C/c1cc(OC(C)=O)c2c(c1)[C@@H](C(=O)OC)[C@H](c1ccc(OC(C)=O)c(OC(C)=O)c1)O2" ; Class = ?
Out: B

In: Form: Item = Cc1cc(NC(=O)C2c3ccccc3C(=O)N(CC(C)C)C2c2cccs2)no1 (centres undefined) ; Class = ?
Out: B

src = PubChem BioAssay (NCI)
